Tested on: LXRb homodimer (NR concentration 270 nM)
Test: PBM binding z-score (relative to random genomic background probes); higher = stronger binding; sequences stand for … in GC…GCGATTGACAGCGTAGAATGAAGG
Assignment: determine reported PBM binding z-score for the given sequences.
Note: the reply should be a number with no unit written.

Q: I'd like to know its PBM binding z-score. The sequence in question is GCTAGTTGGTCAGTAAAAGGTCACATACCGGTCG
A: 0.816

Q: I'd like to know its PBM binding z-score. The sequence in question is GCGACTGGGGAAAAGCAGGTTACCATAAGGTTGG
A: -1.04

Q: I'd like to know its PBM binding z-score. The sequence in question is TCGACTAGGTTACCAATGGGGCATTCAGCTTTCT
A: -0.537

Q: I'd like to know its PBM binding z-score. The sequence in question is ACTAGCAGGCCAAGTTTGGGTCACTCACACAAAG
A: -0.282

Q: I'd like to know its PBM binding z-score. The sequence in question is CAAACTAGGTCACAGAGGCCAAAGTCCGTGCGTA
A: 0.0915

Q: I'd like to know its PBM binding z-score. The sequence in question is CCGACTGAGGCAAGGTTACCATAACGCACAGCCA
A: -0.805

Q: I'd like to know its PBM binding z-score. The sequence in question is GGAACGAGGGCAAGTCGATAGCAGAGTTTGATGG
A: -0.781

Q: I'd like to know its PBM binding z-score. The sequence in question is CGTCCAAGTTCAGCAGGTCAGTGAAAGCGACGTG
A: -0.267

Q: I'd like to know its PBM binding z-score. The sequence in question is ATGTCTAGGTAAAGTTCAGTGAAAGATCGATAGA
A: 0.816

Q: I'd like to know its PBM binding z-score. The sequence in question is TCTAGTTGGTCACGGAGGTCAGACACGACGGGTA
A: 0.127

Q: I'd like to know its PBM binding z-score. The sequence in question is TCTGCTAGGTCAGTTGCTCAGCTAACGAGCTGCC
A: -0.131

Q: I'd like to know its PBM binding z-score. The sequence in question is TAGCCTAGGTCCTGCGGGCCAGTATAGTGTCGGC
A: -1.06
